Biological target: FLT3 (Homo sapiens, UniProt P36888)
Sequence (P36888 27-993): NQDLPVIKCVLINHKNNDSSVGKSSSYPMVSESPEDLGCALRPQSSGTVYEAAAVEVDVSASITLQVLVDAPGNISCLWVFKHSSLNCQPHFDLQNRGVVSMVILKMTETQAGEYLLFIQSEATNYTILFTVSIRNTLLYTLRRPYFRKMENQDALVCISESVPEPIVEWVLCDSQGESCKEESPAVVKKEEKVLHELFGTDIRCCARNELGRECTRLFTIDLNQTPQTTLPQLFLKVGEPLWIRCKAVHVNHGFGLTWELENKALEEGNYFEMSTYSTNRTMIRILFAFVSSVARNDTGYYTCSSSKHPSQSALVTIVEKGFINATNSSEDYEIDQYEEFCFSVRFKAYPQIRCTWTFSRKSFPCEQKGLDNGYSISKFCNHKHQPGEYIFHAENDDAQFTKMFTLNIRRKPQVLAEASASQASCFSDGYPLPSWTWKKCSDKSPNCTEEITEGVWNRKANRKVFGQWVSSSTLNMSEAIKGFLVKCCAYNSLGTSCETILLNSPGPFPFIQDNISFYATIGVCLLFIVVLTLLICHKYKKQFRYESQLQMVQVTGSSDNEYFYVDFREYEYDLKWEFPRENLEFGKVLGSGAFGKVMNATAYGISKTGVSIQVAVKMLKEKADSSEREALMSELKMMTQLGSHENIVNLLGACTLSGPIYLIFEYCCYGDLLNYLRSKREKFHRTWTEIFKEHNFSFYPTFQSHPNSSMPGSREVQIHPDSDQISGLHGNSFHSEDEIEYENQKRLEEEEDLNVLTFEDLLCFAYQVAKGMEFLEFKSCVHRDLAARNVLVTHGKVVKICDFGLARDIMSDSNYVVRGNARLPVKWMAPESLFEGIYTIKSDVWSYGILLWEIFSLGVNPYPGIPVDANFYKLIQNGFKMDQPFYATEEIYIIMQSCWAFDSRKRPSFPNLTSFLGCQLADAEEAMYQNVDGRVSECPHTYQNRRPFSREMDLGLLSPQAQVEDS
Test: FLT3 enzyme activity (IC50)
Assay type: biochemical
Details: read-out: FLT3 IC50
measuredEndpoint: IC50

{"querySmiles": "Cc1cn(-c2cc(-c3ncc4ccc(NC(=O)c5cnoc5C)cc4n3)cc(C(F)(F)F)c2)cn1", "result": "< 3 µM"}
{"querySmiles": "Cc1oncc1C(=O)Nc1ccc2cnc(-c3ccc(Cl)c(C(F)(F)F)c3)nc2c1", "result": "> 10 µM"}
{"querySmiles": "COc1ccc(CCc2ncc3ccc(NC(=O)c4cnoc4C)cc3n2)cc1", "result": "> 10 µM"}
{"querySmiles": "Cc1oncc1C(=O)Nc1ccc2cnc(Cc3ccc(F)cc3)nc2c1", "result": "> 10 µM"}
{"querySmiles": "CCN1CCN(Cc2cc(-c3ncc4ccc(NC(=O)c5cnoc5C)cc4n3)cc(C(F)(F)F)c2)CC1", "result": "< 3 µM"}
{"querySmiles": "Cc1oncc1C(=O)Nc1ccc2cnc(-c3cc(N4CCN(C)CC4)cc(C(F)(F)F)c3)nc2c1", "result": "< 3 µM"}
{"querySmiles": "Cc1oncc1C(=O)Nc1ccc2cnc(-c3cc(C(C)(C)C)on3)nc2c1", "result": "> 10 µM"}
{"querySmiles": "CC(=O)N1CCC(c2ncc3ccc(NC(=O)c4cnoc4C)cc3n2)CC1", "result": "> 10 µM"}
